# Test system: CL 4931, CL 5053, CL 5242 and CL 4877
# Assay type: cell-based, E. faecium, E. faecalis
# Parameters: unit not given here
# test_conditions: mean of CL4931, CL5053, CL5242, CL4877; unit not given
The recorded Mean of each item maps onto one of these classes: LOW: < 4; MID: ≥ 4 and < 10; HIGH: ≥ 10

// bin(item) where item = CCCNCC1OC(Oc2c3cc4cc2Oc2ccc(cc2Cl)C(O)C2NC(=O)C(NC(=O)C4NC(=O)C(CC(N)=O)NC(=O)C(NC(=O)C(CC(C)C)NC)C(O)c4ccc(c(Cl)c4)O3)c3ccc(O)c(c3)-c3c(O)cc(O)cc3C(C(=O)O)NC2=O)C(OC2CC(C)(NCc3ccc(OCc4ccc(Cl)c(Cl)c4)cc3)C(O)C(C)O2)C(O)C1O (stereo not drawn)
MID

// return the class label for CNC(CC(C)C)C(=O)NC1C(=O)NC(CC(N)=O)C(=O)NC2C(=O)NC3C(=O)NC(C(=O)NC(C(=O)O)c4cc(O)cc(O)c4-c4cc3ccc4O)C(O)c3ccc(c(Cl)c3)Oc3cc2cc(c3OC2OC(CNCc3ccc(C)cc3)C(O)C(O)C2OC2CC(C)(NCc3ccc(OCc4ccc(Cl)c(Cl)c4)cc3)C(O)C(C)O2)Oc2ccc(cc2Cl)C1O (stereo not drawn)
LOW

Form: Item = CNC(CC(C)C)C(=O)NC1C(=O)NC(CC(N)=O)C(=O)NC2C(=O)NC3C(=O)NC(C(=O)NC(C(=O)O)c4cc(O)cc(O)c4-c4cc3ccc4O)C(O)c3ccc(c(Cl)c3)Oc3cc2cc(c3OC2OC(CNCCc3ccc(N)cc3)C(O)C(O)C2OC2CC(C)(NCc3ccc(OCc4ccc(Cl)c(Cl)c4)cc3)C(O)C(C)O2)Oc2ccc(cc2Cl)C1O (stereo not drawn) ; Class = ?
LOW

Class label required: CNC(CC(C)C)C(=O)NC1C(=O)NC(CC(N)=O)C(=O)NC2C(=O)NC3C(=O)NC(C(=O)NC(C(=O)O)c4cc(O)cc(O)c4-c4cc3ccc4O)C(O)c3ccc(c(Cl)c3)Oc3cc2cc(c3OC2OC(CN3CCCC3)C(O)C(O)C2OC2CC(C)(NCc3ccc(OCc4ccc(Cl)c(Cl)c4)cc3)C(O)C(C)O2)Oc2ccc(cc2Cl)C1O (stereo not drawn)
HIGH

Class label required: CNC(CC(C)C)C(=O)NC1C(=O)NC(CC(N)=O)C(=O)NC2C(=O)NC3C(=O)NC(C(=O)NC(C(=O)O)c4cc(O)cc(O)c4-c4cc3ccc4O)C(O)c3ccc(c(Cl)c3)Oc3cc2cc(c3OC2OC(CN3CCC(N(C)C)C3)C(O)C(O)C2OC2CC(C)(NCc3ccc(OCc4ccc(Cl)c(Cl)c4)cc3)C(O)C(C)O2)Oc2ccc(cc2Cl)C1O (stereo not drawn)
HIGH

Bin? CNC(CC(C)C)C(=O)NC1C(=O)NC(CC(N)=O)C(=O)NC2C(=O)NC3C(=O)NC(C(=O)NC(C(=O)O)c4cc(O)cc(O)c4-c4cc3ccc4O)C(O)c3ccc(c(Cl)c3)Oc3cc2cc(c3OC2OC(CNCc3ccc(Cl)cc3)C(O)C(O)C2OC2CC(C)(NCc3ccc(OCc4ccc(Cl)c(Cl)c4)cc3)C(O)C(C)O2)Oc2ccc(cc2Cl)C1O (stereo not drawn)
MID

Sort CNC(CC(C)C)C(=O)NC1C(=O)NC(CC(N)=O)C(=O)NC2C(=O)NC3C(=O)NC(C(=O)NC(C(=O)O)c4cc(O)cc(O)c4-c4cc3ccc4O)C(O)c3ccc(c(Cl)c3)Oc3cc2cc(c3OC2OC(CNCc3ccco3)C(O)C(O)C2OC2CC(C)(NCc3ccc(OCc4ccc(Cl)c(Cl)c4)cc3)C(O)C(C)O2)Oc2ccc(cc2Cl)C1O (stereo not drawn) into one of the categories.
MID

Would you mind sorting CNC(CC(C)C)C(=O)NC1C(=O)NC(CC(N)=O)C(=O)NC2C(=O)NC3C(=O)NC(C(=O)NC(C(=O)O)c4cc(O)cc(O)c4-c4cc3ccc4O)C(O)c3ccc(c(Cl)c3)Oc3cc2cc(c3OC2OC(CN)C(O)C(O)C2OC2CC(C)(NCc3ccc(C(=O)Oc4ccc(Cl)c(Cl)c4)cc3)C(O)C(C)O2)Oc2ccc(cc2Cl)C1O (stereo not drawn) into the appropriate category?
HIGH

Hi there! Could you help me figure out the category for CNC(CC(C)C)C(=O)NC1C(=O)NC(CC(N)=O)C(=O)NC2C(=O)NC3C(=O)NC(C(=O)NC(C(=O)O)c4cc(O)cc(O)c4-c4cc3ccc4O)C(O)c3ccc(c(Cl)c3)Oc3cc2cc(c3OC2OC(CN)C(O)C(O)C2OC2CC(C)(NCc3ccc(OCc4ccccc4C(F)(F)F)cc3)C(O)C(C)O2)Oc2ccc(cc2Cl)C1O (stereo not drawn) please?
HIGH

Just checking, what class would you give CNC(CC(C)C)C(=O)NC1C(=O)NC(CC(N)=O)C(=O)NC2C(=O)NC3C(=O)NC(C(=O)NC(C(=O)O)c4cc(O)cc(O)c4-c4cc3ccc4O)C(O)c3ccc(c(Cl)c3)Oc3cc2cc(c3OC2OC(CNC3CC3)C(O)C(O)C2OC2CC(C)(NCc3ccc(OCc4ccc(Cl)c(Cl)c4)cc3)C(O)C(C)O2)Oc2ccc(cc2Cl)C1O (stereo not drawn) here?
HIGH
